Value source: the supplement of paper PMC12317010

# test-method-notes: collision cross section in nitrogen (drift tube, single-field); higher = larger gas-phase ion size;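 note: chemical standards at 10 µM analysed by drift tube IMS-QTOF MS in about 3.95 torr nitrogen, mean of duplicate injections differing ≤1%, mass error below 10 ppm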
# condition-description: ion type: [M-H]; ion source: ESI; ion mode: Negative
attribute-measured: collision cross section in nitrogen
Lab note: write values as number then unit, every time.

> print(dat)
                                   compound                   attribute.measured  data.value
1  Cc1cc(Cc2cc(C)cc(C(C)(C)C)c2O)c(O)c(C(C)(C)C)c1  collision cross section in nitrogen    195.4 Å²
2                  Nc1nc2nc[nH]c2c(=S)[nH]1  collision cross section in nitrogen    128.9 Å²
3                 Cc1cc(C)c(O)c(C(C)(C)C)c1  collision cross section in nitrogen    144.9 Å²

Data request, read-out collision cross section in nitrogen, for CC(C)c1cccc(C(C)C)c1NC(=O)NS(=O)(=O)c1cc(C(C)(C)O)co1
199.5 Å²

---

# test-method-notes: collision cross section in nitrogen (drift tube, single-field); higher = larger gas-phase ion size
# condition-description: ion type: [M-H]; ion source: ESI; ion mode: Negative
attribute-measured: collision cross section in nitrogen (Å²)
Lab book: enter the figure in Å², no units written.

Worked examples follow.
> print(dat)
                                  molecule  data.value
1     CC(C)c1cccc(O)c1 [3-Isopropylphenol]       132.9
2  O=c1ccc(=O)[nH][nH]1 [Maleic hydrazide]       117.8

Data request, read-out collision cross section in nitrogen, for C[C@H](CCC(=O)NCC(=O)O)[C@H]1CC[C@H]2[C@@H]3[C@H](O)C[C@@H]4C[C@H](O)CC[C@]4(C)[C@H]3C[C@H](O)[C@]12C [Glycocholic acid]
202.5

Data request, read-out collision cross section in nitrogen, for S=c1[nH]c2ccccc2[nH]1 [2-Mercaptobenzimidazole]
127.1

Data request, read-out collision cross section in nitrogen, for Cc1ccc(S(=O)(=O)O)cc1 [4-Methylbenzenesulfonic acid hydrate]
134.4

---

# test-method-notes: collision cross section in nitrogen (drift tube, single-field); higher = larger gas-phase ion size
# condition-description: ion type: [M+Na]; ion source: ESI; ion mode: Positive
collision cross section in nitrogen for assorted compounds
Lab book: enter the figure in Å², no units written.

> print(dat)
                                   compound                   attribute.measured  data.value
1  C=CC(=O)OCC1CC2CC1C1CCC(COC(=O)C=C)C21 (configuration not stated) [Tricyclodecanedimethanol diacrylate]  collision cross section in nitrogen       176.9
2  CNP(=O)(OC)Oc1ccc(C(C)(C)C)cc1Cl (configuration not stated) [Crufomate]  collision cross section in nitrogen       176.3
3  C=CCC1=C(C)[C@@H](OC(=O)[C@@H]2[C@@H](C=C(C)C)C2(C)C)CC1=O  collision cross section in nitrogen       184.5
4  CC[C@H](C)C(=O)O[C@H]1C[C@H](O)C=C2C=C[C@H](C)[C@H](CC[C@@H](O)C[C@@H](O)CC(=O)O)[C@H]21 [Pravastatin sodium]  collision cross section in nitrogen       206.7
5  C=CC(=O)OCC(CO)(COC(=O)C=C)COC(=O)C=C [Pentaerythritol triacrylate]  collision cross section in nitrogen       165.1
6  CCOC(=O)CC(CC(=O)OCC)(OC(C)=O)C(=O)OCC [Citric acid, triethyl ester, acetate]  collision cross section in nitrogen       175.4
7  CC(=O)CC(=O)Nc1ccccc1C [N-(2-Methylphenyl)-3-oxobutanamide]  collision cross section in nitrogen       154.9
8  COc1ccccc1NC(=O)c1cc2ccccc2cc1O [3-Hydroxy-2-naphthoic o-anisidide]  collision cross section in nitrogen       181.8

Data request, read-out collision cross section in nitrogen, for Nc1nc2nc[nH]c2c(=S)[nH]1
142.3

Data request, read-out collision cross section in nitrogen, for Nc1ccc(C(=O)OCCCOC(=O)c2ccc(N)cc2)cc1 [1,3-Propanediyl bis(p-aminobenzoate)]
188.2

Data request, read-out collision cross section in nitrogen, for CCCCN(CCCC)C(=O)N(CCCC)CCCC
194

Data request, read-out collision cross section in nitrogen, for O=C(O)c1ccc2c(c1)nc(C(=O)NC1CCN(C3CC3)CC1)n2Cc1cc(-c2ccc(Cl)s2)on1
242.2

Data request, read-out collision cross section in nitrogen, for CCCCOCCOC(=O)CCCCCCCCC(=O)OCCOCCCC [Bis(2-butoxyethyl) decanedioate]
197.8

Data request, read-out collision cross section in nitrogen, for CC(C)c1ccc(NC(=O)N(C)C)cc1
158.8

Data request, read-out collision cross section in nitrogen, for O=C1c2ccccc2C(=O)N1CCc1noc(-c2ccc(CN3CCCCCC3)s2)n1
213.7

Data request, read-out collision cross section in nitrogen, for COc1cc(C(=O)NC2CCN(C)CC2)ccc1Nc1ncc2c(n1)N(C1CCCC1)CC(F)(F)C(=O)N2C
262.3

Data request, read-out collision cross section in nitrogen, for CCCCCOC(=O)c1ccccc1C(=O)OCCCCC [Dipentyl phthalate]
193.4
